pEC50 values, listed per item
System: human venous whole blood, CD8 positive population (pERK)
Assay Details: DGK human whole blood pERK assay
Format: cell-based
Condition Set: human whole blood pERK; read-out: DGK HWB
Notebook: values listed as pEC50 are -log10 of the concentration (mol/L).

Guide cases for pEC50, answers given:
[[record]]
molecule = "CC1CN(c2c(C#N)c(=O)n(C)c3ccc(C#N)nc23)CCC1N(C)C1CCC(F)(F)CC1 (single isomer, unassigned)"
observation_type = "pEC50"
reported_result = 4.70

[[record]]
molecule = "CCO[C@H]1CN(c2cc(=O)n(C)c3ccc(C#N)nc23)CC[C@@H]1Oc1cccc(C(F)(F)F)n1 (relative stereo) [Example 364]"
observation_type = "pEC50"
reported_result = 4.70


Please find the next molecule below.
Problem: pEC50 for CCO[C@H]1CN(c2cc(=O)n(C)c3ccc(C#N)nc23)CC[C@@H]1Oc1nc2ccccc2s1 [Example 374] ?
Solution: 4.70

====

IC50 values, listed per item
Tested on: human venous whole blood, CD8 positive population (pERK)
Assay Details: DGK human whole blood pERK assay
Type: cell-based
Condition Set: Homo sapiens, CD8 positive, read-out: DGK HWB pERK IC50
Method: Assay 11: DGK Human Whole Blood pERK Assay Human whole blood ERK phosphorylation assay was performed with human venous whole blood obtained from healthy donors (drawn with Heparin as anti-coagulant). […] Samples analyzed using the Intellicyt® iQue Screener PLUS. The pERK activation was quantitated by the percentage of pERK positive population within CD8 positive population.
Please state the value followed by its unit.

Guide cases for IC50, answers given:
[[record]]
molecule = "CC[C@@H]1CN(c2cc(=O)n(C)c3ccc(C#N)nc23)CC[C@H]1Oc1cccc(C(C)C)c1 (single isomer, unassigned)"
reported_result = "5.3 µM"

[[record]]
molecule = "CC[C@@H]1CN(c2cc(=O)n(C)c3ccc(C#N)nc23)CC[C@@H]1Oc1cccc(C(C)(C)C)c1"
reported_result = "2 µM"


Please find the next molecule below.
Problem: IC50 for "CC[C@@H]1CN(c2cc(=O)n(C)c3ccc(C#N)nc23)CC[C@@H]1Oc1cccc(C(C)C)c1" ?
Solution: 5.1 µM

====

Target Entity: Human DGKα(9-727) (Homo sapiens (Human))
Sequence (P23743 whole entry, looked up): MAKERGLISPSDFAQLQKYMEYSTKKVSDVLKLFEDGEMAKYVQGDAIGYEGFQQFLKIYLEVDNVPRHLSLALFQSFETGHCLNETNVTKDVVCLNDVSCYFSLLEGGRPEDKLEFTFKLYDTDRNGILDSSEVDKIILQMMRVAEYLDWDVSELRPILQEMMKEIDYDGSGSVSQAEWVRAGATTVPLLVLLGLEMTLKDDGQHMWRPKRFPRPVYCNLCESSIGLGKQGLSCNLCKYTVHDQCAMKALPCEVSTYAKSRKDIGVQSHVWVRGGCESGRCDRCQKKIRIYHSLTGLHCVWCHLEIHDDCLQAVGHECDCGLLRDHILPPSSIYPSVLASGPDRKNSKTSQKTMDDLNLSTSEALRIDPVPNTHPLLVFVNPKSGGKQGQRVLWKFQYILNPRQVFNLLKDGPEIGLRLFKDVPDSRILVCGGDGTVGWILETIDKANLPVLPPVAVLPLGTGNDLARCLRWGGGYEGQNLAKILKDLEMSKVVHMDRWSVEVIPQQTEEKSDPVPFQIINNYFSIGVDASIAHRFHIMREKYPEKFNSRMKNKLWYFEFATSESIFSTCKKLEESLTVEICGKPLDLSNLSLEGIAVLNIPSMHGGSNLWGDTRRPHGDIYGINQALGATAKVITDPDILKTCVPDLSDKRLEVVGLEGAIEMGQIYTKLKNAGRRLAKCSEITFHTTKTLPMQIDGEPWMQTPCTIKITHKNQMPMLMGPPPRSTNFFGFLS
Assay Details: biochemical
Condition Set: Table A; liposome (LIPGLO) assay; read-out: DGKα
IC50 values, listed per item
// return numeric value only (unit: µM, not printed)

Guide cases for IC50, answers given:
[[record]]
compound = "CO[C@H]1CN(c2cc(=O)n(C)c3ccc(C#N)nc23)CC[C@@H]1Oc1ccc(OC(C)C)cn1 (single isomer, unassigned) [Example 270]"
target_entity = "Human DGKα(9-727) (Homo sapiens (Human))"
unit_info = "µM"
reported_result = 2.4

[[record]]
compound = "CO[C@@H]1CN(c2nc(=O)n(C)c3ccc(C#N)nc23)CC[C@H]1Oc1cccc(C(F)(F)F)c1 (single isomer, unassigned) [Example 277]"
target_entity = "Human DGKα(9-727) (Homo sapiens (Human))"
unit_info = "µM"
reported_result = 4.9

[[record]]
compound = "CO[C@@H]1CN(c2cc(=O)n(C)c3ccc(C#N)nc23)CC[C@H]1Oc1cccc(C(F)(F)F)c1 (single isomer, unassigned) [Example 262]"
target_entity = "Human DGKα(9-727) (Homo sapiens (Human))"
unit_info = "µM"
reported_result = 3.7


Please find the next compound below.
Problem: IC50 for CC1CN(c2c(C#N)c(=O)n(C)c3ccc(C#N)nc23)CCC1N(C)Cc1ccc(F)cc1 (single isomer, unassigned) [Example 323] ?
Solution: 3.5

Where these numbers come from: patent US11964973B2
